Test summary: Hemolytic activity in mouse RBC assessed as hemolysis at 0.1 mM measured after 5 hrs
Format: toxicity, cell-based, Erythrocyte
Condition label: mouse red blood cells, read-out: Activity
Reported hemolysis at 5 h, 100 µM values are given for each entry in this list.
Experimental endpoint: hemolysis at 5 h, 100 µM

* C=CCc1cc(OC)c2c(c1OC)OCO2 [APIOL] | ≤ 10%
* C=CCc1cc2c(c(OC)c1OC)OCO2 [DILLAPIOLE] | ≤ 10%
* C=CCc1ccc2c(c1)OCO2 [SAFROLE] | ≤ 10%

###

Test system: Erythrocyte
Test summary: Antioxidant activity in mouse RBC assessed as inhibition of H2O2-induced hemolytic activity at 0.1 mM preincubated with compound for 30 mins followed by H2O2 addition and measured after 5 hrs
Format: functional, cell-based
Condition label: time 5.5 hrs
Calls of active or inactive are those of the source. The calls are words filed in the database; no cut-off is given here.
Outcome codes: active, inactive

* C=CCc1cc(OC)c2c(c1OC)OCO2 | inactive
* C=CCc1ccc(OC)cc1 | inactive
* C=CCc1ccc2c(c1)OCO2 | inactive
* C=CCc1cc2c(c(OC)c1OC)OCO2 | active
* C=CCc1cc(OC)c(OC)c(OC)c1OC | inactive
* C=CCc1cc(OC)c2c(c1)OCO2 | active
* C=CCc1ccccc1 | inactive
